Listing of recorded Percent Effect by entry.
target: AMP-activated protein kinase, AMPK (Homo sapiens) (UniProt P54646+O43741+P54619+Q9UGJ0+Q9Y478+Q13131+Q9UGI9); assay: AMP-dependent Kinase enzyme assay. An in vitro enzyme assay that detects ADP turnover that is directly proportional to AMPK activity. This uses naive AMPK that is activated during the assay with MK-8722; assay type: functional; parameters: scale not given: direction of the effect not stated beside the values; details: 30 µM
The reply should contain only the number, in %.

Example cases with answers are listed next.
[[record]]
molecule = "CC(NC(=O)N(C)Cc1ccsc1)c1ccc2c(c1)OCO2 (configuration not stated)"
readout = "Percent Effect"
observed = 5

[[record]]
molecule = "CCn1ncc2c1CCCC2NCc1cc(Cl)c(OC)c(OC)c1 (configuration not stated)"
readout = "Percent Effect"
observed = -8.16

[[record]]
molecule = "CN1CCCc2cc(CNC(=O)c3ccncc3)ccc21"
readout = "Percent Effect"
observed = 22.6

[[record]]
molecule = "COc1cccc(COCC(=O)N2CCCC(c3cc(C)[nH]n3)C2)c1 (configuration not stated)"
readout = "Percent Effect"
observed = -9.62

[[record]]
molecule = "CCOCCCNC(=O)c1cc(C(C)C)nc(N2CCCCCC2)n1"
readout = "Percent Effect"
observed = 4.38


Which Percent Effect value is on record for `c1ccc(CN2CCN(Cc3cscn3)CC2)cc1` ? 2.52

Which Percent Effect value is on record for `CCOc1ccc(Cl)cc1CNCCCn1ccnc1` ? 7.15

Which Percent Effect value is on record for `Cc1ccc(CS(=O)(=O)N2CC[C@H]3[C@H]2CCN3C)cc1` ? -1.19

Which Percent Effect value is on record for `CN(C)C(=O)CN1C[C@@H]2CC[C@H](C1)N(Cc1cc(F)ccc1F)C2` ? 42.7

Which Percent Effect value is on record for O=C1CCCN1CC1CN(C(=O)CC2CCCC2)Cc2nccn2C1 (configuration not stated) ? 4.17

Which Percent Effect value is on record for CC(C)c1nc(C2CCCN2CCCc2nc3ccccc3o2)no1 (configuration not stated) ? -9.61

Which Percent Effect value is on record for Cc1ccccc1CS(=O)(=O)CC(=O)NC1CCCCNC1=O (configuration not stated) ? -2.46
